Cited source: the RNAGym collection of RNA variant scans (doi:10.1073/pnas.2313332121)

Record form. Attribute: polymerase ribozyme fitness (log ratio). Fill in for each entry.
B1: TPR t1 (parent)
chain: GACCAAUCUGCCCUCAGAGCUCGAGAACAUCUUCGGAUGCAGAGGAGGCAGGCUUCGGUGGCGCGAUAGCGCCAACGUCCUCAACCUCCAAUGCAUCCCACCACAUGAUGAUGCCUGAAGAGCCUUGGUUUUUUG

Variants of: B1
measurement_description: polymerase ribozyme fitness, log enrichment relative to wild type (log ratio); higher = more active; in vitro selection for triplet polymerase activity

Consider the reported polymerase ribozyme fitness (log ratio) for these variants:
mutation_key | polymerase ribozyme fitness (log ratio)
C11G G61A A90U U109G G117A | -6.12
A50C C56A | -0.326
A6U C8A G44U G107A U112A | -6.05
A2G C8G G57U C85A | -1.4
C114U G120A C123U | -1.64

Quick one: give me polymerase ribozyme fitness (log ratio) for each item below, same order please.
1. G17U G71A
2. U9G C53U A95C C115A
3. C20A C53U U87A

-3.25
0.969
-3.21

List the reported polymerase ribozyme fitness (log ratio) of each variant below.
1. C8G C15A G39A G52C U59A C89A G117A
2. A46U C62G C88A C124A
3. C8A C28A C56U C82U U106A C115A
4. G10U
5. A18U G47U G52A
6. G69A C89U C123G
7. C11U C73G C124U
8. A2G G77A C102A C123G G128C

1: -2.57; 2: -4.36; 3: -2.02; 4: -0.124; 5: -5.39; 6: -2.85; 7: 0.969; 8: -3.09

Return reported polymerase ribozyme fitness (log ratio) values for all items listed beneath this line.
1. G61A C104A G110A
2. G113C A119G
3. A2U A37C G44A C53A G63C C124A
4. A27C U112C G120C U126C U131A
5. U7A C8G A43C C53A G77A
6. A41U A84U C88A
7. C73G C115U
8. C13G C85U

[-3.83, -0.737, -3.55, -3.22, -2.07, -3.83, -1.97, -2.91]

Consider the following items and state reported polymerase ribozyme fitness (log ratio) for each.
1. G39A C49A
2. C94A G135U
3. G51U G52A
4. C73G G110A
5. U59A C82G A119U

-0.508
-1.66
-4.95
-1.17
-0.921
